Where do the numbers come from? From patent US20260209348A1.

- Target System: human ROR2 (human, UniProt Q01974 34-403, limits assumed)
- Sequence (Q01974 34-403 limits assumed): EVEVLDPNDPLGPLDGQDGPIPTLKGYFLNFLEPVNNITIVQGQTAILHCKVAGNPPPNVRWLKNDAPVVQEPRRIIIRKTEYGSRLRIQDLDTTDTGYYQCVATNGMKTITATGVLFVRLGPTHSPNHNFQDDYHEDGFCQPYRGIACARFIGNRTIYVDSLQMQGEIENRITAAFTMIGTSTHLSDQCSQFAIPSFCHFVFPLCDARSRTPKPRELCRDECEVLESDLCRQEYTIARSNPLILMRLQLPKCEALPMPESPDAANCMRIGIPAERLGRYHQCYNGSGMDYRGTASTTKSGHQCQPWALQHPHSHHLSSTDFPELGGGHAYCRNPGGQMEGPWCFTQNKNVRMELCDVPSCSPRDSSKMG
- Method: SPR

[
  {
    "Binder": "grafted humanized 6E6: VH3-21*01 (IMGT) + VK1-12*01 (extended) (antibody, V domains shown, expressed as IgG) VH: EVQLVESGGGLVKPGGSLRLSCAASGFTFSNYGMNWVRQAPGKGLEWVSSISSGGGYTYYADSVKGRFTISRDNAKNSLYLQMNSLRAEDTAVYYCARHPRDFSYAMDYWGQGTTVTVSS VL: DIQMTQSPSSVSASVGDRVTITCKASQDVGHYVAWYQQKPGKAPKLLIYWASTRHTGVPSRFSGSGSGTDFTLTISSLQPEDFATYYCQQYNIYPWTFGQGTKVEIK",
    "binding result": "no binding"
  },
  {
    "Binder": "grafted humanized 6E6: VH3-21*01 (IMGT) + VK1-12*01 (IMGT) (antibody, V domains shown, expressed as IgG) VH: EVQLVESGGGLVKPGGSLRLSCAASGFTFSNYGMNWVRQAPGKGLEWVSSISSGGGYTYYADSVKGRFTISRDNAKNSLYLQMNSLRAEDTAVYYCARHPRDFSYAMDYWGQGTTVTVSS VL: DIQMTQSPSSVSASVGDRVTITCRASQDVGHYLAWYQQKPGKAPKLLIYWASSLQSGVPSRFSGSGSGTDFTLTISSLQPEDFATYYCQQYNIYPWTFGQGTKVEIK",
    "binding result": "no binding"
  },
  {
    "Binder": "grafted humanized 6E6: VH3-11*03 (extended) + VK1-12*01 (IMGT) (antibody, V domains shown, expressed as IgG) VH: QVQLLESGGGLVKPGGSLRLSCAASGFTFSNYGMSWIRQAPGKGLEWVSTISSGGGYTHYVDSVKGRFTISRDNAKNSLYLQMNSLRAEDTAVYYCARHPRDFSYAMDYWGQGTTVTVSS VL: DIQMTQSPSSVSASVGDRVTITCRASQDVGHYLAWYQQKPGKAPKLLIYWASSLQSGVPSRFSGSGSGTDFTLTISSLQPEDFATYYCQQYNIYPWTFGQGTKVEIK",
    "binding result": "no binding"
  }
]
